Values were extracted from BindingDB's records for doi:10.1016/s0960-894x(98)00672-6.

Target: Guanine deaminase (Oryctolagus cuniculus)
Assay: Compound was tested for its inhibitory effect on rabbit liver guanase
attribute-measured: pKi
Remember the convention: pKi equals -log10 of concentration in molar.

Prompt: Name the recorded pKi for `O=c1cnc2c(ncn2Cc2ccccc2)c(=O)[nH]1` .
Response: 3.64
